# Organism: Rattus norvegicus
# Assay info: Open TG-GATES - Regimen: Single
# Type: toxicity, organism-based, Sprague-Dawley
# Design: regimen Single, gender Male, age 6 weeks
# Setup conditions: in vivo, po, 0 mg/kg, 24 h, tissue Plasma, route gavage, dose level Control
Endpoint name: TBIL (mg/dL)

INSERT INTO measurements (compound, endpoint_name, result) VALUES
  ('CN(CCOc1ccc(CC2SC(=O)NC2=O)cc1)c1ccccn1.O=C(O)/C=C\C(=O)O (stereo not given) [ROSIGLITAZONE MALEATE]', 'TBIL', 0.038),
  ('CC(S)C(=O)NCC(=O)O (stereo not given)', 'TBIL', 0.004),
  ('O=C(O)c1ccccc1Nc1ccccc1', 'TBIL', 0.034),
  ('CN(C/C=C/C#CC(C)(C)C)Cc1cccc2ccccc12', 'TBIL', 0.2),
  ('Nc1ccc(Cc2ccc(N)cc2)cc1', 'TBIL', 0.044),
  ('CN(C)CCCN1c2ccccc2Sc2ccc(Cl)cc21', 'TBIL', 0.1),
  ('CCN(CC)C(=S)SSC(=S)N(CC)CC', 'TBIL', 0.01),
  ('COc1cc2ncnc(Nc3ccc(F)c(Cl)c3)c2cc1OCCCN1CCOCC1', 'TBIL', 0.01),
  ('CCO', 'TBIL', 0.3),
  ('O=c1ccc2ccccc2o1', 'TBIL', 0.3),
  ('CCCCNC(=O)NS(=O)(=O)c1ccc(C)cc1 [TOLBUTAMIDE]', 'TBIL', 0.066),
  ('CC(=O)[C@@]1(O)CC[C@H]2[C@@H]3C=C(Cl)C4=CC(=O)CC[C@]4(C)[C@H]3CC[C@@]21C', 'TBIL', 0.01),
  ('NS(=O)(=O)c1cc(C(=O)O)c(NCc2ccco2)cc1Cl [FUROSEMIDE]', 'TBIL', 0.052),
  ('COc1ccc([C@@H]2Sc3ccccc3N(CCN(C)C)C(=O)[C@@H]2OC(C)=O)cc1', 'TBIL', 0.03),
  ('C=C[C@H]1C[N@@]2CC[C@H]1C[C@@H]2[C@@H](O)c1ccnc2ccc(OC)cc12', 'TBIL', 0.008);

###

# Species: Rattus norvegicus
# Assay info: Open TG-GATES - Regimen: Single
# Assay type: toxicity, organism-based, Sprague-Dawley
# Parameters: regimen Single, gender Male, age 6 weeks
# Setup conditions: in vivo, po, 0 mg/kg, 24 h, tissue Plasma, route gavage, dose level Control
ALT: recorded values
Endpoint name: ALT (IU/L)

INSERT INTO assay_data (compound, endpoint_name, unit_of_measurement, result) VALUES
  ('CC(=O)[C@@]1(O)CC[C@H]2[C@@H]3C=C(Cl)C4=CC(=O)CC[C@]4(C)[C@H]3CC[C@@]21C [CHLORMADINONE]', 'ALT', 'IU/L', 45.4),
  ('CN(C)CCCN1c2ccccc2Sc2ccc(Cl)cc21 [CHLORPROMAZINE]', 'ALT', 'IU/L', 34.8),
  ('CN(CCOc1ccc(CC2SC(=O)NC2=O)cc1)c1ccccn1.O=C(O)/C=C\C(=O)O (centres undefined) [ROSIGLITAZONE MALEATE]', 'ALT', 'IU/L', 38.4),
  ('O=c1ccc2ccccc2o1 [COUMARIN]', 'ALT', 'IU/L', 37),
  ('Nc1ccc(Cc2ccc(N)cc2)cc1', 'ALT', 'IU/L', 38.6),
  ('CCO [ALCOHOL]', 'ALT', 'IU/L', 39.8),
  ('NS(=O)(=O)c1cc(C(=O)O)c(NCc2ccco2)cc1Cl [FUROSEMIDE]', 'ALT', 'IU/L', 47.4),
  ('COc1cc2ncnc(Nc3ccc(F)c(Cl)c3)c2cc1OCCCN1CCOCC1 [GEFITINIB]', 'ALT', 'IU/L', 44.5),
  ('CN(C/C=C/C#CC(C)(C)C)Cc1cccc2ccccc12 [TERBINAFINE]', 'ALT', 'IU/L', 36.4),
  ('O=C(O)c1ccccc1Nc1ccccc1 [FENAMIC ACID]', 'ALT', 'IU/L', 44.4),
  ('CCN(CC)C(=S)SSC(=S)N(CC)CC', 'ALT', 'IU/L', 40.4),
  ('COc1ccc([C@@H]2Sc3ccccc3N(CCN(C)C)C(=O)[C@@H]2OC(C)=O)cc1 [DILTIAZEM]', 'ALT', 'IU/L', 48),
  ('CCCCNC(=O)NS(=O)(=O)c1ccc(C)cc1 [TOLBUTAMIDE]', 'ALT', 'IU/L', 44.6),
  ('CC(S)C(=O)NCC(=O)O (centres undefined) [TIOPRONIN]', 'ALT', 'IU/L', 44);
